Every entry's value here was drawn from patent US20240336601A1.

EXPERIMENTAL TARGET: interaction between PD-1 and PD-L1 (Homo sapiens)
METHOD DESCRIPTION: PD-1/PD-L1 protein-protein interaction assay (ALPHA)
COND: 2 nM His-tagged human PD-L1, 0.6 nM PD-1-Fc, AlphaScreen
VALUE TYPE: IC50

Illustrative cases are given below, each with its answer.
Cc1nn(CCNC[C@@H]2CCC(=O)N2)c2ccc(-n3ccc4c(-c5ccc6c(c5)OCCO6)cccc43)cc12 :: > 100 nM
COc1cc(-n2ncc3c(-c4cccc(-c5ccc(CN6CC7(CNC(=O)C7)C6)c(OC)n5)c4Cl)cccc32)cc(OC)c1CN1CC[C@@H](O)C1 :: 1 to 10 nM
COc1cc(-n2ncc3c(-c4cccc(-c5ccc(CN6CC7(CNC(=O)C7)C6)c(OC)n5)c4F)cccc32)cc(OC)c1CNC[C@@H]1CCC(=O)N1 :: < 1 nM
COc1cc(-n2ncc3c(-c4cccc(-c5ccc(CN6CC(C(C)(C)O)C6)c(OC)n5)c4Cl)cccc32)cc(OC)c1CN1CC2(CNC(=O)C2)C1 :: 1 to 10 nM
COc1cc(-c2cccc(-c3cccc4c3cnn4-c3cc(OC)c(CN4CC[C@@H](O)C4)c(OC)c3)c2Cl)cc(F)c1CN(C)C12CCC(C(=O)O)(CC1)CC2 :: < 1 nM

q: # return recorded IC50 for entry COc1cc(-n2ncc3c(-c4cccc(-c5ccc(CN[C@H]6C[C@@H](O)C6)c(OC)n5)c4Cl)cccc32)cc(OC)c1CN1CC(C)(C(=O)NC2CC2)C1
a: < 1 nM

----------
EXPERIMENTAL TARGET: PD-1/PD-L1 interaction (Homo sapiens)
METHOD DESCRIPTION: PD-1/PD-L1 blockage cell-based bioassay (Jurkat NFAT luciferase / CHO-PDL1 co-culture)
COND: Jurkat NFAT cells co-cultured with CHO-PDL1 cells, 6 h, luminescence
pIC50: −log10 of the molar value.
VALUE TYPE: pIC50

Illustrative cases are given below, each with its answer.
COc1cc(-n2ncc3c(-c4cccc(-c5ccc(C6=NCCN6)c(OC)n5)c4Cl)cccc32)cc(OC)c1CN1CC(C)(C(N)=O)C1 :: 5.70 to 6.70
COc1cc(-n2ncc3c(-c4cccc(-c5ccc(C6=NCCN6)c(OC)n5)c4Cl)cccc32)cc(OC)c1CNC[C@@H]1CCC(=O)N1 :: > 6.70

Consider the additional compound presented here.
q: # return recorded pIC50 for entry COc1cc(-n2ncc3c(-c4cccc(Nc5nc(C(F)F)nc6cc(CN7CC[C@@H](O)C7)cnc56)c4C)cccc32)cc(OC)c1CN1CCC(C(=O)O)CC1
a: 5.70 to 6.70

----------
EXPERIMENTAL TARGET: interaction between PD-1 and PD-L1 (Homo sapiens)
METHOD DESCRIPTION: PD-1/PD-L1 protein-protein interaction assay (ALPHA)
COND: 2 nM His-tagged human PD-L1, 0.6 nM PD-1-Fc, AlphaScreen
pIC50: −log10 of the molar value.
# pIC50 values compiled below

Illustrative cases are given below, each with its answer.
COc1cc(-n2ncc3c(-c4cccc(-c5nc6cc(CN(C)C78CCC(C(=O)O)(CC7)CC8)cc(C#N)c6o5)c4C)cccc32)cc(OC)c1CN1CC(O)C1 :: > 9.00
COc1cc(-n2ccc3c(-c4cccc(-c5ccc(CN6CC7(CNC(=O)C7)C6)c(OC)n5)c4Cl)cccc32)cc(OC)c1CNC[C@@H]1CCC(=O)N1 :: 8.00 to 9.00
COc1cc(-n2ccc3c(-c4cccc(-c5ccc(CNC[C@@H]6CCC(=O)N6)c(OC)n5)c4Cl)ccnc32)cc(OC)c1CN1CC(C)(C(=O)NC2CC2)C1 :: 8.00 to 9.00
COc1cc(-n2ncc3c(-c4cccc(-c5ccc(C6=NCCN6)c(OC)n5)c4Cl)cccc32)cc(OC)c1CN1CC(C)(C(N)=O)C1 :: 8.00 to 9.00
COc1cc(-n2ncc3c(-c4cccc(-c5ccc(CNC[C@@H]6CCC(=O)N6)c(OC)n5)c4Cl)cccc32)cc(OC)c1CNCC1(C(=O)O)CC1 :: > 9.00

Consider the additional compound presented here.
q: # return recorded pIC50 for entry COc1cc(-c2cn(C)c3c(-c4cccc(-c5ccc(CNC[C@@H]6CCC(=O)N6)c(OC)n5)c4Cl)cccc23)cc(OC)c1CNC[C@@H]1CCC(=O)N1
a: 8.00 to 9.00

----------
# IC50 values compiled below
EXPERIMENTAL TARGET: PD-1/PD-L1 interaction (Homo sapiens, UniProt Q9NZQ7)
Sequence (Q9NZQ7 19-290): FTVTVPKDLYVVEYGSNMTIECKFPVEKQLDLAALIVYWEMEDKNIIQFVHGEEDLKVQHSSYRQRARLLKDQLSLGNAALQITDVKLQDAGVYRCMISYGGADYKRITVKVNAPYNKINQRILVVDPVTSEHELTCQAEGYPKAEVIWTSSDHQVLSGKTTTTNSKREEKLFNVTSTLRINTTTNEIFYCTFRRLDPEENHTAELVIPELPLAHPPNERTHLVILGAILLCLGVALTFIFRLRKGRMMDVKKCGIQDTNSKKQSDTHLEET
METHOD DESCRIPTION: PD-1/PD-L1 blockage cell-based bioassay (Jurkat NFAT luciferase / CHO-PDL1 co-culture)
COND: Jurkat NFAT cells co-cultured with CHO-PDL1 cells, 6 h, luminescence

Illustrative cases are given below, each with its answer.
COc1cc(-n2ncc3c(-c4cccc(-c5ccc(CN6CC7(CNC(=O)C7)C6)c(OC)n5)c4Cl)cccc32)cc(OC)c1CN[C@H]1C[C@@H](O)C1 [Example 97] :: < 200 nM
COc1cc(-n2ncc3c(-c4cccc(-c5ccc(CN6CC7(CNC(=O)C7)C6)c(OC)n5)c4Cl)cccc32)cc(OC)c1CNCCO [Example 128] :: < 200 nM
COc1cc(-n2ncc3c(-c4cccc(-c5nc6cc(CN(C)C78CCC(C(=O)O)(CC7)CC8)cc(C#N)c6o5)c4C)cccc32)cc(OC)c1CN1CC[C@@H](O)C1 [Example 157] :: < 200 nM
COc1cc(-n2ncc3c(-c4cccc(Nc5nc(C(F)F)nc6cc(CN7CC[C@@H](C(=O)O)C7)cnc56)c4C)cccc32)cc(OC)c1CN1CC[C@@H](O)C1 [Example 165] :: < 200 nM
COc1cc(-n2ncc3c(-c4cccc(-c5ccc(CN6CC(C(C)(C)O)C6)c(OC)n5)c4C)cccc32)cc(OC)c1CN1CC(C(C)(C)O)C1 [Example 136] :: 201 to 2000 nM

Consider the additional compound presented here.
q: # return recorded IC50 for entry COc1cc(-n2ncc3c(-c4cccc(-c5ccc(CN6CC7(CNC(=O)C7)C6)c(OC)n5)c4Cl)cccc32)cc(OC)c1CNC[C@H]1C[C@@H](O)C1 [Example 91]
a: 201 to 2000 nM

----------
EXPERIMENTAL TARGET: interaction between PD-1 and PD-L1 (Homo sapiens, UniProt Q9NZQ7)
METHOD DESCRIPTION: PD-1/PD-L1 protein-protein interaction assay (ALPHA)
Type: binding
COND: 2 nM His-tagged human PD-L1, 0.6 nM PD-1-Fc, AlphaScreen
pIC50: −log10 of the molar value.
# pIC50 values compiled below

Illustrative cases are given below, each with its answer.
COc1cc(-n2ncc3c(-c4cccc(-c5ccc(CN6CC7(CNC(=O)C7)C6)c(OC)n5)c4Cl)cccc32)cc(OC)c1CN1CC(C(=O)O)C1 [Example 150] :: > 9.00
COc1cc(-n2ncc3c(-c4cccc(-c5ccc(CN[C@H]6C[C@@H](O)C6)c(OC)n5)c4Cl)cccc32)cc(OC)c1CNCC(C)(C)C(N)=O [Example 109] :: 8.00 to 9.00
COc1cc(C(=O)n2ccc3c(-c4ccc5c(c4)OCCO5)cccc32)cc(OC)c1CNC(C)(CO)C(=O)O (stereo not drawn) [Example 7] :: < 7.00
COc1cc(-n2ccc3c(-c4cccc(-c5ccc(CN6CC(C)(C(=O)O)C6)c(OC)n5)c4Cl)ccnc32)cc(OC)c1CNC[C@@H]1CCC(=O)N1 [Example 70] :: 8.00 to 9.00
COc1cc(-n2ncc3c(-c4cccc(-c5ccc(CNC[C@@H]6CCC(=O)N6)c(OC)n5)c4Cl)cccc32)cc(OC)c1CN1CC(C)(C(=O)NC2CC2)C1 [Example 88] :: 8.00 to 9.00

q: # return recorded pIC50 for entry COc1cc(-n2ccc3c(-c4cccc(-c5ccc(CNCC(C)(C)C(=O)O)c(OC)n5)c4Cl)cccc32)cc(OC)c1CNC[C@@H]1CCC(=O)N1 [Example 48]
a: 7.00 to 8.00

q: # return recorded pIC50 for entry COc1cc(-n2ncc3c(-c4cccc(-c5ccc(C6=NCCN6)c(OC)n5)c4Cl)cccc32)cc(OC)c1CNC[C@@H]1CCC(=O)N1 [Example 74]
a: > 9.00

q: # return recorded pIC50 for entry COc1cc(-n2ncc3c(-c4cccc(-c5ccc(CN6CC7(CNC(=O)C7)C6)c(OC)n5)c4Cl)cccc32)ncc1CN[C@H]1C[C@@H](O)C1 [Example 111]
a: > 9.00

q: # return recorded pIC50 for entry COc1nc(-n2ccc3c(-c4ccc5c(c4)OCCO5)cccc32)cnc1CNC[C@@H]1CCC(=O)N1 [Example 60]
a: < 7.00

q: # return recorded pIC50 for entry COc1cc(-n2ncc3c(-c4cccc(-c5ccc(CN6CC7(CNC(=O)C7)C6)c(OC)n5)c4Cl)cccc32)cc(OC)c1CN[C@H]1C[C@@H](O)C1 [Example 97]
a: > 9.00

q: # return recorded pIC50 for entry COc1cc(-n2ncc3c(-c4cccc(-c5ccc(CN6CC7(CNC(=O)C7)C6)c(OC)n5)c4Cl)cccc32)cc(OC)c1CN1CC(C)(C(N)=O)C1 [Example 103]
a: 8.00 to 9.00

q: # return recorded pIC50 for entry COc1cc(-n2ccc3c(-c4ccc5c(c4)OCCO5)cccc32)cc(OC)c1CNC(C)(CO)C(=O)O (stereo not drawn) [Example 1]
a: 7.00 to 8.00
